# Tested on: Enterobacter cloacae S-130
# ASSAY_NOTES: Microbroth dilution (MHB) method, NCCLS M7-A2
# Assay type: cell-based
# PROTOCOL_CONDITIONS: Enterobacter cloacae, S130, Ecl S-130, inoculum 5 x 10^5 cfu/ml, 35 °C/18 hr, read-out: MIC
MEASURE_NAME: MIC (µg/mL)
// return numeric value only (unit: µg/mL, not printed)

Reference set, count: 3
COMPOUND	MEASURE_NAME	MEASURED_NUMBER
COc1c(N2CCC(n3cc(C)nn3)C2)c(F)cc2c(=O)c(C(=O)O)cn(C3CC3)c12 (stereo not shown) [Example 33]	MIC	1
O=C(O)c1cn(C2CC2)c2c(F)c(N3CCC(n4cc(-c5ccccc5)nn4)C3)c(F)cc2c1=O (stereo not shown) [Example 46]	MIC	1
Cc1cnnn1C1CCN(c2c(F)cc3c(=O)c(C(=O)O)cn(C4CC4)c3c2F)C1 (stereo not shown) [Example 22]	MIC	0.25

Need MIC of Cc1c(F)c(N2CCC(n3ccnn3)C2)c(F)c2c1c(=O)c(C(=O)O)cn2C1CC1 (stereo not shown) [Example 24] , thanks.
0.25

Need MIC of Cc1cn(C2CCN(c3c(F)cc4c(=O)c(C(=O)O)cn5c4c3OC[C@@H]5C)C2)nn1 (single isomer, unassigned; (-)) [Example 39] , thanks.
1

Need MIC of COc1c(N2CC[C@H](n3ccnn3)C2)c(F)cc2c(=O)c(C(=O)O)cn(C3CC3)c12 [Example 31] , thanks.
0.5

Need MIC of CCn1cc(C(=O)O)c(=O)c2cc(F)c(N3CCNCC3)cc21 [MFLX, Norfloxacin, reference compound] , thanks.
0.12

====

Reported MIC is given for each of the following molecules.
# Tested on: Providencia rettgeri S-121
# ASSAY_NOTES: Microbroth dilution (MHB) method, NCCLS M7-A2
# Type: cell-based
# PROTOCOL_CONDITIONS: Providencia rettgeri, S121, Pr S-121, inoculum 5 x 10^5 cfu/ml, 35 °C/18 hr, read-out: MIC
// return numeric value only (unit: µg/mL, not printed)

Reference set, count: 3
MOLECULE	MEASURED_NUMBER
Cc1cnnn1C1CCN(c2c(F)cc3c(=O)c(C(=O)O)cn(C4CC4)c3c2F)C1 (stereo not shown) [Example 22]	0.25
Cc1c(F)c(N2CCC(n3cncn3)C2)c(F)c2c1c(=O)c(C(=O)O)cn2C1CC1 (stereo not shown) [Example 23]	0.5
O=C(O)c1cn(C2CC2)c2c(F)c(N3CCC(n4ccnn4)C3)c(F)c(F)c2c1=O (stereo not shown) [Example 49]	0.12

Moving on to the next molecule.
Need MIC of C[C@H]1COc2c(N3CCC(n4ccnn4)C3)c(F)cc3c(=O)c(C(=O)O)cn1c23 (single isomer, unassigned; (-)) [Example 38] , thanks.
1

====

Reported MIC is given for each of the following compounds.
# Tested on: Providencia rettgeri S-121
# ASSAY_NOTES: Microbroth dilution (MHB) method, NCCLS M7-A2
# Assay type: cell-based
# PROTOCOL_CONDITIONS: Providencia rettgeri, S121, Pr S-121, inoculum 5 x 10^5 cfu/ml, 35 °C/18 hr, read-out: MIC
// return numeric value only (unit: µg/mL, not printed)

Reference set, count: 5
COMPOUND	MEASURED_NUMBER
C[C@H]1COc2c(N3CCC(n4cncn4)C3)c(F)cc3c(=O)c(C(=O)O)cn1c23 (single isomer, unassigned; (-)) [Example 40]	0.5
O=C(O)c1cn(C2CC2)c2c(F)c(N3CCC(n4cnnn4)C3)c(F)cc2c1=O (stereo not drawn) [Example 52]	0.12
Nc1c(F)c(N2CCC(n3cc(-c4ccccc4)nn3)C2)c(F)c2c1c(=O)c(C(=O)O)cn2C1CC1 (stereo not drawn) [Example 47]	0.015
O=C(O)c1cn(C2CC2)c2c(F)c(N3CCC(n4nncc4C(=O)O)C3)c(F)cc2c1=O (stereo not drawn) [Example 43]	32
O=C(O)c1cn(C2CC2)c2c(F)c(N3CCC(n4cncn4)C3)c(F)cc2c1=O (stereo not drawn) [Example 29]	0.25

Need MIC of Nc1cn(C2CCN(c3c(F)cc4c(=O)c(C(=O)O)cn(C5CC5)c4c3F)C2)nn1 (stereo not drawn) [Example 42] , thanks.
1

Need MIC of Cc1cn(C2CCN(c3c(F)c(N)c4c(=O)c(C(=O)O)cn(C5CC5)c4c3F)C2)nn1 (stereo not drawn) [Example 25] , thanks.
0.25

Need MIC of Cc1c(F)c(N2CCC(n3ccnn3)C2)c(F)c2c1c(=O)c(C(=O)O)cn2C1CC1 (stereo not drawn) [Example 24] , thanks.
0.5

Need MIC of O=C(O)c1cn(C2CC2)c2c(F)c(N3CCC(n4cc(-c5ccccc5)nn4)C3)c(F)cc2c1=O (stereo not drawn) [Example 46] , thanks.
0.015
